# TARGET DESC: human β-N-acetylhexosaminidase B (HsHexB) (Homo sapiens)
# Construct: made in house; host or cells: Pichia pastoris
# Sequence (P07686 122-556): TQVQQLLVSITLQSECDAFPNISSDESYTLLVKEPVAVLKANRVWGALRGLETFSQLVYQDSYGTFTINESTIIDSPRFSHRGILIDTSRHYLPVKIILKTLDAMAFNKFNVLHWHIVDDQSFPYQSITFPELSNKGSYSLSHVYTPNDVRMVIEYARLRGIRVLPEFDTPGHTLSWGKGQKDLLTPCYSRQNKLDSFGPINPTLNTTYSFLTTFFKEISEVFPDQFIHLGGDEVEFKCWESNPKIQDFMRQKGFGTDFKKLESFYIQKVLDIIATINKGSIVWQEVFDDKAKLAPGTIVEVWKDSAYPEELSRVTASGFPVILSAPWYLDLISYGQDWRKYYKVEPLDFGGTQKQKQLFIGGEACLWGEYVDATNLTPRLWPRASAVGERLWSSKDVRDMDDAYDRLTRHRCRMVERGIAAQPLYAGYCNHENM
# TEST NAME: Enzyme inhibitory activity test against HsHexB (4-MU-GlcNAc substrate, end-point fluorescence; Dixon plots for Ki)
# Type: biochemical
# MEASUREMENT CONTEXT: 100 μM inhibitor; 40 μM 4-MU-GlcNAc; pH 4.5; 30°C, 30 min; read-out: Inhibition rate at 100 μM (%) HsHexB
# Experimental: Human O-GlcNAcase (hOGA) was expressed in Escherichia coli BL21(DE3) and purified according to previous methods (Kong et al., [2016]). […] All target compounds were evaluated for their inhibitory activities against hOGA and HsHexB in end-point experiments. […] The fluorescence of the liberated 4-methylumbelliferone (Mu) was quantified at an excitation of 366 nm and emission of 445 nm on a Varioskan Flash microplate reader (Thermo Fisher Scientific, USA). […]
ENDPOINT NAME: inhibition at 100 µM (%)

[[record]]
molecule = "O=C(CS[C@@H]1O[C@H](CO)[C@@H](O)[C@H](O)[C@H]1NC(=O)c1ccccc1)NCCCN1C(=O)c2cccc3c(Br)ccc(c23)C1=O [Compound 16j]"
endpoint_name = "inhibition at 100 µM"
experimental_result = 49.1

[[record]]
molecule = "CCCNC(=O)N[C@@H]1[C@@H](O)[C@H](O)[C@@H](CO)O[C@H]1SCC(=O)NCCCN1C(=O)c2cccc3c(N4CCCCC4)ccc(c23)C1=O [Compound 17b]"
endpoint_name = "inhibition at 100 µM"
experimental_result = 22.7

[[record]]
molecule = "CCCC(=O)N[C@@H]1[C@@H](O)[C@H](O)[C@@H](CO)O[C@H]1SCC(=O)NCCCN1C(=O)c2cccc3c(N4CCCCC4)ccc(c23)C1=O [Compound 16e]"
endpoint_name = "inhibition at 100 µM"
experimental_result = 24.6

[[record]]
molecule = "CCC(=O)N[C@@H]1[C@@H](O)[C@H](O)[C@@H](CO)O[C@H]1SCC(=O)NCCCN1C(=O)c2cccc3c(N4CCCCC4)ccc(c23)C1=O [Compound 16d]"
endpoint_name = "inhibition at 100 µM"
experimental_result = 28.7

[[record]]
molecule = "O=C(CS[C@@H]1O[C@H](CO)[C@@H](O)[C@H](O)[C@H]1NC(=O)C(F)(F)F)NCCCN1C(=O)c2cccc3c(N4CCCCC4)ccc(c23)C1=O [Compound 16g]"
endpoint_name = "inhibition at 100 µM"
experimental_result = 6.4

[[record]]
molecule = "CC(C)C(=O)N[C@@H]1[C@@H](O)[C@H](O)[C@@H](CO)O[C@H]1SCC(=O)NCCCN1C(=O)c2cccc3c(N4CCCCC4)ccc(c23)C1=O [Compound 16f]"
endpoint_name = "inhibition at 100 µM"
experimental_result = 21.4

[[record]]
molecule = "CC(=O)N[C@@H]1[C@@H](O)[C@H](O)[C@@H](CO)O[C@H]1SCC(=O)NCCCN1C(=O)c2cccc3c(N(C)C)ccc(c23)C1=O [Compound 10c]"
endpoint_name = "inhibition at 100 µM"
experimental_result = 36.9

[[record]]
molecule = "O=C(CS[C@@H]1O[C@H](CO)[C@@H](O)[C@H](O)[C@H]1NC(=O)c1ccccc1)NCCCN1C(=O)c2cccc3c(N4CCCCC4)ccc(c23)C1=O [Compound 16a]"
endpoint_name = "inhibition at 100 µM"
experimental_result = 12.2

[[record]]
molecule = "CNC(=O)N[C@@H]1[C@@H](O)[C@H](O)[C@@H](CO)O[C@H]1SCC(=O)NCCCN1C(=O)c2cccc3c(Br)ccc(c23)C1=O [Compound 17c]"
endpoint_name = "inhibition at 100 µM"
experimental_result = 40.7

[[record]]
molecule = "CCC(=O)N[C@@H]1[C@@H](O)[C@H](O)[C@@H](CO)O[C@H]1SCC(=O)NCCCN1C(=O)c2cccc3c(Br)ccc(c23)C1=O [Compound 16l]"
endpoint_name = "inhibition at 100 µM"
experimental_result = 41.8

[[record]]
molecule = "CCCC(=O)N[C@@H]1[C@@H](O)[C@H](O)[C@@H](CO)O[C@H]1SCC(=O)NCCCN1C(=O)c2cccc3c(Br)ccc(c23)C1=O [Compound 16m]"
endpoint_name = "inhibition at 100 µM"
experimental_result = 39.8

[[record]]
molecule = "CCNC(=O)N[C@@H]1[C@@H](O)[C@H](O)[C@@H](CO)O[C@H]1SCC(=O)NCCCN1C(=O)c2cccc3c(Br)ccc(c23)C1=O [Compound 17d]"
endpoint_name = "inhibition at 100 µM"
experimental_result = 26.3

[[record]]
molecule = "CNC(=O)N[C@@H]1[C@@H](O)[C@H](O)[C@@H](CO)O[C@H]1SCC(=O)NCCCN1C(=O)c2cccc3c(N4CCCCC4)ccc(c23)C1=O [Compound 16h]"
endpoint_name = "inhibition at 100 µM"
experimental_result = 25.2

[[record]]
molecule = "CC(=O)N[C@@H]1[C@@H](O)[C@H](O)[C@@H](CO)O[C@H]1SCC(=O)NCCCN1C(=O)c2cccc3c(Br)ccc(c23)C1=O [Compound 10a]"
endpoint_name = "inhibition at 100 µM"
experimental_result = 36.5

[[record]]
molecule = "CC(=O)N[C@@H]1[C@@H](O)[C@H](O)[C@@H](CO)O[C@H]1SCC(=O)NCCCN1C(=O)c2cccc3c(N4CCCCC4)ccc(c23)C1=O [Compound 10d]"
endpoint_name = "inhibition at 100 µM"
experimental_result = 32.8

[[record]]
molecule = "O=C(CS[C@@H]1O[C@H](CO)[C@@H](O)[C@H](O)[C@H]1NC(=O)c1ccc(F)cc1)NCCCN1C(=O)c2cccc3c(N4CCCCC4)ccc(c23)C1=O [Compound 16b]"
endpoint_name = "inhibition at 100 µM"
experimental_result = 15.8

[[record]]
molecule = "CC(=O)N[C@@H]1[C@@H](O)[C@H](O)[C@@H](CO)O[C@H]1SCC(=O)NCCCN1C(=O)c2cccc3cccc(c23)C1=O [Compound 2, reference compound]"
endpoint_name = "inhibition at 100 µM"
experimental_result = 45.5

[[record]]
molecule = "O=C(CS[C@@H]1O[C@H](CO)[C@@H](O)[C@H](O)[C@H]1NC(=O)OCc1ccccc1)NCCCN1C(=O)c2cccc3c(N4CCCCC4)ccc(c23)C1=O [Compound 16c]"
endpoint_name = "inhibition at 100 µM"
experimental_result = 2

[[record]]
molecule = "CCNC(=O)N[C@@H]1[C@@H](O)[C@H](O)[C@@H](CO)O[C@H]1SCC(=O)NCCCN1C(=O)c2cccc3c(N4CCCCC4)ccc(c23)C1=O [Compound 17a]"
endpoint_name = "inhibition at 100 µM"
experimental_result = 25.9

[[record]]
molecule = "CC(C)C(=O)N[C@@H]1[C@@H](O)[C@H](O)[C@@H](CO)O[C@H]1SCC(=O)NCCCN1C(=O)c2cccc3c(Br)ccc(c23)C1=O [Compound 16n]"
endpoint_name = "inhibition at 100 µM"
experimental_result = 37

